# ASSAY_SYSTEM: CD28 (human) (UniProt P10747)
# ASSAY_PROCEDURE: flow cytometry, Jurkat/IL2 reporter cells (CD28)
ENDPOINT_LABEL: MFI at 33.3 nM (MFI)
Express it in MFI; write the number only.

Use these answered entries as a reference point.
binder="variant CD80 IgV-Fc E35D/T41S/M43I/M47L/A71G (Fc fusion) VIHVTKEVKEVATLSCGHNVSVEELAQTRIYWQKDKKMVLSMISGDLNIWPEYKNRTIFDITNNLSIVILGLRPSDEGTYECVVLKYEKDAFKREHLAEVTLSVKAD" endpoint_label="MFI at 33.3 nM" measured_result=3100
binder="variant CD80 IgV-Fc E35D/M47L/A71G/L85M/F92Y (Fc fusion) VIHVTKEVKEVATLSCGHNVSVEELAQTRIYWQKDKKMVLTMMSGDLNIWPEYKNRTIFDITNNLSIVILGLRPSDEGTYECVVMKYEKDAYKREHLAEVTLSVKAD" endpoint_label="MFI at 33.3 nM" measured_result=2460
binder="variant CD80 IgV-Fc E35D/D46V/M47V/V68M/L85Q (Fc fusion) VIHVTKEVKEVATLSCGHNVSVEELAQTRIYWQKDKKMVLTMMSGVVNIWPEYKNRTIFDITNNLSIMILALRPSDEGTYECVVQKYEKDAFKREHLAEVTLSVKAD" endpoint_label="MFI at 33.3 nM" measured_result=331

(Q) What value of MFI at 33.3 nM has been reported for the following binder? variant CD80 IgV-Fc D46V/L85Q (Fc fusion) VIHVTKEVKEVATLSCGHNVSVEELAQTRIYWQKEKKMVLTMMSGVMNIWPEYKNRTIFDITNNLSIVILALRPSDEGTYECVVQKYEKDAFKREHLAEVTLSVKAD
(A) 131

(Q) What value of MFI at 33.3 nM has been reported for the following binder? variant CD80 IgV-Fc E35D/N48K/V68M (Fc fusion) VIHVTKEVKEVATLSCGHNVSVEELAQTRIYWQKDKKMVLTMMSGDMKIWPEYKNRTIFDITNNLSIMILALRPSDEGTYECVVLKYEKDAFKREHLAEVTLSVKAD
(A) 642

(Q) What value of MFI at 33.3 nM has been reported for the following binder? variant CD80 IgV-Fc E35D/M47V/A71G/E88D (Fc fusion) VIHVTKEVKEVATLSCGHNVSVEELAQTRIYWQKDKKMVLTMMSGDVNIWPEYKNRTIFDITNNLSIVILGLRPSDEGTYECVVLKYDKDAFKREHLAEVTLSVKAD
(A) 6240
